# Target Of Assay: T1, human IL-11 (human, UniProt P20809 22-199)
# T1 sequence: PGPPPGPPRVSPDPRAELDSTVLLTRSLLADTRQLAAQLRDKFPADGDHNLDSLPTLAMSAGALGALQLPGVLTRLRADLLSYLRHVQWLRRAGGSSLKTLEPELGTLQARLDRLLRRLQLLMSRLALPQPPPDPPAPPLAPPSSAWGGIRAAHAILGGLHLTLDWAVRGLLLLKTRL
# Method Notes: cell-based or functional assay
Listed binders paired with reported RGA IC50
Give just the numeric value; nM need not be written.

Here's what some known entries look like.
TPP-29392 (antibody, human IgG1, V domains shown) VH: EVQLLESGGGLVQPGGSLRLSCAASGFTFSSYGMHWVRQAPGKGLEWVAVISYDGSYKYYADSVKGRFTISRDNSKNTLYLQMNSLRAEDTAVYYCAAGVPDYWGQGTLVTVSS VL: QSVLTQPPSASGTPGQRVTISCSGSSSNIWSDYDVHWYQQLPGTAPKLLIYSNEERPSGVPDRFSGSKSGTSASLAISGLRSEDEADYYCAAWDSSLSGPVFGGGTKLTVL ... 1.2
TPP-29397 (antibody, human IgG1, V domains shown) VH: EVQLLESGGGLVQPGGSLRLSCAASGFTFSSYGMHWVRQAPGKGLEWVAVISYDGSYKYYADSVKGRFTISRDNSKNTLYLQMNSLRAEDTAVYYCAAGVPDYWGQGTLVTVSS VL: QSVLTQPPSASGTPGQRVTISCSGSSSNIWSGYDVHWYQQLPGTAPKLLIYSNEERPSGVPDRFSGSKSGTSASLAISGLRSEDEADYYCAAWDSSLYGPVFGGGTKLTVL ... 0.53

Please look at the following binder next.
Task item: Tell me measured RGA IC50 for TPP-29391 (antibody, human IgG1, V domains shown) VH: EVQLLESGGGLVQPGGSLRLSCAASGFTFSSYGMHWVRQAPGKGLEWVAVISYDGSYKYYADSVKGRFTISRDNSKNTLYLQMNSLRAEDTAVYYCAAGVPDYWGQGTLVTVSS VL: QSVLTQPPSASGTPGQRVTISCSGSSSNIGSDYDVHWYQQLPGTAPKLLIYSNNERPSGVPDRFSGSKSGTSASLAISGLRSEDEADYYCAAWDSSLYGPVFGGGTKLTVL please.
Reply: 0.54
